# experimentalTarget: hDRD2 (Homo sapiens, UniProt P14416)
# Sequence (P14416 whole entry): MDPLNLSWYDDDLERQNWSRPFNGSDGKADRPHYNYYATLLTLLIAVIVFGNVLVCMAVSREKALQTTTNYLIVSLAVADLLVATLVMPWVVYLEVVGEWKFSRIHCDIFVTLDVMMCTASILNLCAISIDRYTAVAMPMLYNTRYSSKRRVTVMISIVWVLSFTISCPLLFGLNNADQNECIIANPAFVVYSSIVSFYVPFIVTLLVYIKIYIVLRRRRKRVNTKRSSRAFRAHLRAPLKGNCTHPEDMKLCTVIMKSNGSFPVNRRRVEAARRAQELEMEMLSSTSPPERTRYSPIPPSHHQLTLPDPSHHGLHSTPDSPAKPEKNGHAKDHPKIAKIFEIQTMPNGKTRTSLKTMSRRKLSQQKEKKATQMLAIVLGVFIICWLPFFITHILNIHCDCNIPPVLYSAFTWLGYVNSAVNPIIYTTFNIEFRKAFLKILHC
# test: cell-based
readoutLabel: EC50 (nM)
Answers are plain numbers, in nM.

Send back hDRD2 (Homo sapiens, UniProt P14416) EC50 of `C[C@@H](O)[C@@H]1NC(=O)[C@H](CCCCN)NC(=O)[C@@H](Cc2c[nH]c3ccccc23)NC(=O)[C@H](Cc2ccncc2)NC(=O)[C@H](Cc2ccccc2)NC(=O)[C@H](CCCNC(=N)N)NC(=O)[C@H](NCC[S@@+]([O-])C[C@@H]2C[C@@H]3c4cccc5[nH]cc(c45)C[C@H]3N(C)C2)CCCCNC(=O)[C@H](Cc2ccc(O)cc2)NC1=O` only.
76.3

* * *

# experimentalTarget: hDRD2 (Homo sapiens)
# test: cell-based
Bridge positions count the residues as written; N and C are the ends. Square brackets hold non-standard residues; d marks the D form. Peptide text beside a SMILES is read from it. * marks the point of attachment. X2 = CN1C[C@H](CSCC(=O)*)C[C@@H]2c3cccc4[nH]cc(c34)C[C@H]21; Phe(4-F) = N[C@@H](Cc1ccc(F)cc1)C(=O)O
Answer each item with its documented pEC50.
One number for each entry, as −log10 of the molar value.

Example molecules with recorded pEC50:
Identify measured pEC50 associated with `C[C@@H](O)[C@@H]1NC(=O)[C@H](CCCCN)NC(=O)[C@@H](Cc2c[nH]c3ccccc23)NC(=O)[C@H](Cc2ccccc2)NC(=O)[C@H](Cc2ccccc2)NC(=O)[C@H](CCCNC(=N)N)NC(=O)[C@H](NCCCC[C@@H]2C[C@@H]3c4cccc5[nH]cc(c45)C[C@H]3N(C)C2)CCCCNC(=O)[C@H](Cc2ccc(F)cc2)NC1=O`
7.25

Specify reported pEC50 for the molecule shown: CC(=O)N(CCCN[C@@H]1CCCCNC(=O)[C@H](Cc2ccc(F)cc2)NC(=O)[C@H]([C@@H](C)O)NC(=O)[C@H](CCCCN)NC(=O)[C@@H](Cc2c[nH]c3ccccc23)NC(=O)[C@H](Cc2ccccc2)NC(=O)[C@H](Cc2ccccc2)NC(=O)[C@H](CCCNC(=N)N)NC1=O)C[C@@H]1C[C@@H]2c3cccc4[nH]cc(c34)C[C@H]2N(C)C1 [Compound 29A]
7.20

Can you give me pEC50 for all of these, one by one?
1. C[C@@H](O)[C@@H]1NC(=O)[C@H](CCCCN)NC(=O)[C@@H](Cc2c[nH]c3ccccc23)NC(=O)[C@H](Cc2ccncc2)NC(=O)[C@H](Cc2ccccc2)NC(=O)[C@H](CCCNC(=N)N)NC(=O)[C@H](NCCSC[C@@H]2C[C@@H]3c4cccc5[nH]cc(c45)C[C@H]3N(C)C2)CCCCNC(=O)[C@H](Cc2ccccc2)NC1=O
2. C[C@@H](O)[C@@H]1NC(=O)[C@H](CCCCN)NC(=O)[C@@H](Cc2c[nH]c3ccccc23)NC(=O)[C@H](Cc2ccccc2)NC(=O)[C@H](Cc2ccccc2)NC(=O)[C@H](CCCNC(=N)N)NC(=O)[C@H](NCCSC[C@@H]2C[C@@H]3c4cccc5[nH]cc(c45)C[C@H]3N(C)C2)CCCCNC(=O)[C@H](Cc2cccc(F)c2)NC1=O
3. C[C@@H](O)[C@@H]1NC(=O)[C@H](CCCCN)NC(=O)[C@@H](Cc2c[nH]c3ccccc23)NC(=O)[C@H](Cc2ccncc2)NC(=O)[C@H](Cc2ccccc2)NC(=O)[C@H](CCCNC(=N)N)NC(=O)[C@H](NCC[S@+]([O-])C[C@@H]2C[C@@H]3c4cccc5[nH]cc(c45)C[C@H]3N(C)C2)CCCCNC(=O)[C@H](Cc2ccc(O)cc2)NC1=O

1. 7.47
2. 7.22
3. 8.19

Please report the measured pEC50 for C[C@@H](O)[C@@H]1NC(=O)[C@H](CCCCN)NC(=O)[C@@H](Cc2c[nH]c3ccccc23)NC(=O)[C@H](Cc2ccccc2)NC(=O)[C@H](Cc2ccccc2)NC(=O)[C@H](CCCNC(=N)N)NC(=O)[C@H](NC(=O)CSC[C@@H]2C[C@@H]3c4cccc5[nH]cc(c45)C[C@H]3N(C)C2)CCCCNC(=O)[C@H](Cc2ccc(F)cc2)NC1=O [Compound 34] (X2-[dK]RFF[dW]KT[Phe(4-F)]; lactam 1-C)
7.14

* * *

# experimentalTarget: hSSTR1 (Homo sapiens, UniProt P30872)
# Construct: expressed in transfected cells; host or cells: CHO-K1 (ATCC), pcDNA3.1, G418-selected clonal line; membranes
# Sequence (P30872 whole entry): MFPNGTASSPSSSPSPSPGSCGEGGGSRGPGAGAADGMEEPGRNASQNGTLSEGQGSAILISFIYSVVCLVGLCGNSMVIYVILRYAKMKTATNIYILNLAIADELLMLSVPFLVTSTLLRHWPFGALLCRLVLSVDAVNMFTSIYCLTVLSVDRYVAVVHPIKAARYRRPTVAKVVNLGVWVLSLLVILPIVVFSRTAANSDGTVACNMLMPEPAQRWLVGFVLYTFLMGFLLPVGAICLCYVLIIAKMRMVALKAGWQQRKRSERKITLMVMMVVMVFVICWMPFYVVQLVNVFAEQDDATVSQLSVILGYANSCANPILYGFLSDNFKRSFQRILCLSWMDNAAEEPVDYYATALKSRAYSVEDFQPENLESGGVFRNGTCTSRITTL
# test: Somatostatin receptor radioligand binding assay (hSSTR1)
# protocolConditions: CHO-K1 cell membranes; 0.05 nM [125I-Tyr11]-SRIF-14; 60 minutes at 25°C; read-out: hSSTR1 Ki (nM) ± SEM
readoutLabel: Ki (nM)
Answers are plain numbers, in nM.

Observe how each entry below is paired with its result.
Answer with the recorded Ki of `C[C@@H](O)[C@@H]1NC(=O)[C@H](CCCCN)NC(=O)[C@@H](Cc2c[nH]c3ccccc23)NC(=O)[C@H](Cc2ccncc2)NC(=O)[C@H](Cc2ccccc2)NC(=O)[C@H](CCCNC(=N)N)NC(=O)[C@H](NCCS(=O)(=O)C[C@@H]2C[C@@H]3c4cccc5[nH]cc(c45)C[C@H]3N(C)C2)CCCCNC(=O)[C@H](Cc2ccc(O)cc2)NC1=O` only.
689

Give reported Ki value for `C[C@@H](O)[C@@H]1NC(=O)[C@H](CCCCN)NC(=O)[C@@H](Cc2c[nH]c3ccccc23)NC(=O)[C@H](Cc2ccncc2)NC(=O)[C@H](Cc2ccccc2)NC(=O)[C@H](CCCNC(=N)N)NC(=O)[C@H](NC[C@H](CCCCNC(=O)CSC[C@@H]2C[C@@H]3c4cccc5[nH]cc(c45)C[C@H]3N(C)C2)NC(=O)CSC[C@@H]2C[C@@H]3c4cccc5[nH]cc(c45)C[C@H]3N(C)C2)CCCCNC(=O)[C@H](Cc2ccccc2)NC1=O`
41.9

***
Output measured Ki for this item: `C[C@@H](O)[C@@H]1NC(=O)[C@H](CCCCN)NC(=O)[C@@H](Cc2c[nH]c3ccccc23)NC(=O)[C@H](Cc2ccccc2)NC(=O)[C@H](Cc2ccccc2)NC(=O)[C@H](CCCNC(=N)N)NC(=O)[C@H](NC[C@H](CCCCNC(=O)CSC[C@@H]2C[C@@H]3c4cccc5[nH]cc(c45)C[C@H]3N(C)C2)NC(=O)CSC[C@@H]2C[C@@H]3c4cccc5[nH]cc(c45)C[C@H]3N(C)C2)CCCCNC(=O)[C@H](Cc2ccc(F)cc2)NC1=O`
29

* * *

Please go through the items and note down their pEC50.
# experimentalTarget: hDRD2 (Homo sapiens, UniProt P14416);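 note: agonist activity at human DRD2 in DRD2-expressing cells, read as intracellular calcium mobilization with a FLIPR Calcium 4 fluorescent dye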
# test: cell-based
Numbered stars: 1 amine (or outer) side, 2 acyl side, 3 side chain; on linkers, the order of the positions; unused ones are H or OH. Bridge positions count the residues as written; N and C are the ends. Square brackets hold non-standard residues; d marks the D form. Peptide text beside a SMILES is read from it. X1 = CN1C[C@H](CSCCN(CCSC[C@@H]2C[C@@H]3c4cccc5[nH]cc(c45)C[C@H]3N(C)C2)[C@H](CCCCN[*:2])C(=O)[*:1])C[C@@H]2c3cccc4[nH]cc(c34)C[C@H]21; 4Pal = N[C@@H](Cc1ccncc1)C(=O)O
Answers are plain numbers, as −log10 of the molar value.

Known pEC50 results, listed for orientation:
Complete the entry with pEC50 for C[C@@H](O)[C@@H]1NC(=O)[C@H](CCCCN)NC(=O)[C@@H](Cc2c[nH]c3ccccc23)NC(=O)[C@H](Cc2ccncc2)NC(=O)[C@H](Cc2ccccc2)NC(=O)[C@H](CCCNC(=N)N)NC(=O)[C@H](N(CCSC[C@@H]2C[C@@H]3c4cccc5[nH]cc(c45)C[C@H]3N(C)C2)CCSC[C@@H]2C[C@@H]3c4cccc5[nH]cc(c45)C[C@H]3N(C)C2)CCCCNC(=O)[C@H](Cc2ccc(O)cc2)NC1=O [Compound 35] (RF[4Pal][dW]KTY; linker N-C via X1)
7.01

Give pEC50 for the following compound: C[C@@H](O)[C@@H]1NC(=O)[C@H](CCCCN)NC(=O)[C@@H](Cc2c[nH]c3ccccc23)NC(=O)[C@H](Cc2ccccc2)NC(=O)[C@H](Cc2ccccc2)NC(=O)[C@H](CCCNC(=N)N)NC(=O)[C@H](NC[C@H](Cc2ccc(O)cc2)NC(=O)CSC[C@@H]2C[C@@H]3c4cccc5[nH]cc(c45)C[C@H]3N(C)C2)CCCCNC(=O)[C@H](Cc2ccccc2)NC1=O [Compound 32]
7.45

Indicate its recorded pEC50; the compound in question is C[C@@H](O)[C@@H]1NC(=O)[C@H](CCCCN)NC(=O)[C@@H](Cc2c[nH]c3ccccc23)NC(=O)[C@H](Cc2ccncc2)NC(=O)[C@H](Cc2ccccc2)NC(=O)[C@H](CCCNC(=N)N)NC(=O)[C@H](NC[C@H](CCCCNC(=O)C[S+]([O-])C[C@@H]2C[C@@H]3c4cccc5[nH]cc(c45)C[C@H]3N(C)C2)NC(=O)C[S+]([O-])C[C@@H]2C[C@@H]3c4cccc5[nH]cc(c45)C[C@H]3N(C)C2)CCCCNC(=O)[C@H](Cc2ccc(O)cc2)NC1=O (some centres unmarked) [Compound 16]
8.33

Determine from records and report pEC50 for C[C@@H](O)[C@@H]1NC(=O)[C@H](CCCCN)NC(=O)[C@@H](Cc2c[nH]c3ccccc23)NC(=O)[C@H](Cc2ccccc2)NC(=O)[C@H](Cc2ccccc2)NC(=O)[C@H](CCCNC(=N)N)NC(=O)[C@H](NCCCS(=O)(=O)C[C@@H]2C[C@@H]3c4cccc5[nH]cc(c45)C[C@H]3N(C)C2)CCCCNC(=O)[C@H](Cc2ccc(F)cc2)NC1=O [Compound 48]
7.11

--- query ---
Retrieve pEC50 measured for C[C@@H](O)[C@@H]1NC(=O)[C@H](CCCCN)NC(=O)[C@@H](Cc2c[nH]c3ccccc23)NC(=O)[C@H](Cc2ccccc2)NC(=O)[C@H](Cc2ccccc2)NC(=O)[C@H](CCCNC(=N)N)NC(=O)[C@H](NCCSC[C@@H]2C[C@@H]3c4cccc5[nH]cc(c45)C[C@H]3N(C)C2)CCCCNC(=O)[C@H](Cc2cc(F)cc(F)c2)NC1=O [Compound 6B] and print it.
6.95
